The measurements presented in this section are drawn from ChEMBL document CHEMBL2218924.

- tested_on: Vascular endothelial growth factor receptor 3 (Homo sapiens)
- run_parameters: at 1 µM
Listed here: items and their measured residual activity.

mol_smiles	tested_on	residual activity / %
O=C1Nc2cc(Br)ccc2/C1=C1/Nc2ccccc2/C1=N\O	Vascular endothelial growth factor receptor 3 (Homo sapiens)	1
c1ccc(-c2n[nH]c3c2oc2ccccc23)cc1	Vascular endothelial growth factor receptor 3 (Homo sapiens)	3
COc1cc2ncnc(Nc3ccc(NC(=O)c4ccccc4)cc3)c2cc1OC	Vascular endothelial growth factor receptor 3 (Homo sapiens)	76
O=C1NC(=O)/C(=C/c2ccc3c(c2)OC(F)(F)O3)S1	Vascular endothelial growth factor receptor 3 (Homo sapiens)	98
CCN(CC)CCCCN1c2ccccc2Oc2ccc(Cl)cc21	Vascular endothelial growth factor receptor 3 (Homo sapiens)	96
O=C(Nc1cccc(Nc2cc(Nc3cccc(C(F)(F)F)c3)ncn2)c1)C1CC1	Vascular endothelial growth factor receptor 3 (Homo sapiens)	97
CO[C@H]1C[C@@H]2CC[C@@H](C)[C@@](O)(O2)C(=O)C(=O)N2CCCC[C@H]2C(=O)O[C@H]([C@H](C)C[C@@H]2CC[C@@H](O)[C@H](OC)C2)CC(=O)[C@H](C)/C=C(\C)[C@@H](O)[C@@H](OC)C(=O)[C@H](C)C[C@H](C)/C=C/C=C/C=C/1C	Vascular endothelial growth factor receptor 3 (Homo sapiens)	99
COc1ccc(C(=O)Nc2sc3c(c2C(N)=O)CCCC3)cc1OC	Vascular endothelial growth factor receptor 3 (Homo sapiens)	10
O=C1Nc2ccc(Br)cc2/C1=C\c1cc2c([nH]1)CCCC2	Vascular endothelial growth factor receptor 3 (Homo sapiens)	1
COc1cc2ncnc(Nc3ccc(Oc4ccccc4)cc3)c2cc1OC	Vascular endothelial growth factor receptor 3 (Homo sapiens)	7
CC(C)n1cnc2c(NCc3ccccc3)nc(NCCCO)nc21	Vascular endothelial growth factor receptor 3 (Homo sapiens)	87
Cc1cc(Nc2nc(-c3ccccc3)nc3ccccc23)n[nH]1	Vascular endothelial growth factor receptor 3 (Homo sapiens)	0
COc1ccc(S(=O)(=O)N(CCO)c2ccccc2CN(C)C/C=C/c2ccc(Cl)cc2)cc1	Vascular endothelial growth factor receptor 3 (Homo sapiens)	90
NC(=O)c1ccc2[nH]c(-c3ccc(Oc4ccc(Cl)cc4)cc3)nc2c1	Vascular endothelial growth factor receptor 3 (Homo sapiens)	69
CC(=O)O/N=C1\C(=C2\C(=O)Nc3cc(Br)ccc32)Nc2ccccc21	Vascular endothelial growth factor receptor 3 (Homo sapiens)	2
O=C1NC(=O)/C(=C\c2ccc3nccnc3c2)S1	Vascular endothelial growth factor receptor 3 (Homo sapiens)	98
COc1cc2ncnc(N3CCN(C(=O)Nc4ccc(Oc5ccccc5)cc4)CC3)c2cc1OC	Vascular endothelial growth factor receptor 3 (Homo sapiens)	31
COc1ccc(CNc2nc(N(CCO)CCO)nc3c2ncn3C(C)C)cc1	Vascular endothelial growth factor receptor 3 (Homo sapiens)	62
N#CCCc1ccc2c(c1)-c1[nH]c3ccc([N+](=O)[O-])cc3c1CC(=O)N2	Vascular endothelial growth factor receptor 3 (Homo sapiens)	10
C[C@@H](N)[C@H]1CC[C@H](C(=O)Nc2ccncc2)CC1	Vascular endothelial growth factor receptor 3 (Homo sapiens)	100
CO[C@H]1[C@@H](OC)C[C@H](C)[C@@H](OC)C2=CC(=O)C=C(NC(=O)/C(C)=C/C=C/[C@H](OC)[C@@H](OC(N)=O)/C(C)=C/[C@@H]1C)C2=O	Vascular endothelial growth factor receptor 3 (Homo sapiens)	92
